Please go through the items and note down their pIC50.
# TESTED_ON: HRV3C (Human rhinovirus 14, UniProt P03303)
# TEST_METHOD_NOTES: HRV3C protease assay (duplex, SAMDI-MS)
# Assay type: biochemical, HRV
# RUN_PARAMETERS: HRV3C, 30 mins preincubation, class symbols; read-out: HRV IC50
pIC50: −log10 of the molar value.

Lab note: O=C(NCc1ccccc1)C(=O)C(C[C@@H]1CCNC1=O)NC(=O)[C@@H]1C[C@@H](C2CC2)CN1C(=O)c1cc2ccccc2[nH]1 (stereo partly drawn) [Compound 40] gave pIC50 of 5.70 to 6.70

Lab note: O=C(NCc1ccccc1)C(=O)C(C[C@@H]1CCNC1=O)NC(=O)[C@@H]1C[C@@H](c2ccccc2)CN1C(=O)c1cc2ccccc2[nH]1 (stereo partly drawn) [Compound 7] gave pIC50 of 5.70 to 6.70

Lab note: COc1cccc2[nH]c(C(=O)N3C[C@@H]4CCC[C@@H]4[C@H]3C(=O)NC(C[C@@H]3CCNC3=O)C(=O)C(=O)NC3CC3)cc12 (stereo partly drawn) [Compound 52] gave pIC50 of 5.70 to 6.70

The values you see were collected from patent US11952365B2.
